Molecular target: Interleukin-5 (Mus musculus) (UniProt P04401)
Sequence (whole entry): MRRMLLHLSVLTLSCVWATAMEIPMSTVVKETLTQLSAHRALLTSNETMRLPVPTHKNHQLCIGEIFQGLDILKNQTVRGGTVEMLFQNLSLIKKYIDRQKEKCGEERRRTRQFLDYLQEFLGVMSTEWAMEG
Test: Inhibition interleukin-5 in mouse Y16 cells at 30 uM after 48 hrs by WST-1 assay
Format: cell-based
READOUT_TYPE: inhibition (%)
Write down the numeric answer in % and omit the unit.

| COMPOUND | REPORTED_RESULT |
| --- | --- |
| O=C(CCc1coc2cccc(OCC3CCCCC3)c2c1=O)c1ccc(C(F)(F)F)cc1 | 5.3 |
| O=c1c(CCC(O)c2ccc(F)cc2)coc2cccc(OCC3CCCCC3)c12 (stereo unspecified) | 94 |
| N#Cc1ccc(C(O)CCc2coc3cccc(OCC4CCCCC4)c3c2=O)cc1 (stereo unspecified) | 94 |
| COc1ccc(C(O)CCc2coc3cccc(OCC4CCCCC4)c3c2=O)cc1 (stereo unspecified) | 94 |
| O=c1c(CCC(O)c2ccccc2)coc2cccc(OCC3CCCCC3)c12 (stereo unspecified) | 94 |
| Cc1ccc(C(=O)CCc2coc3cccc(OCC4CCCCC4)c3c2=O)cc1 | 70 |

Note down inhibition recorded for Cc1ccc(C(O)CCc2coc3cccc(OCC4CCCCC4)c3c2=O)cc1 (stereo unspecified) 13.5

Note down inhibition recorded for O=C(CCc1coc2cccc(OCC3CCCCC3)c2c1=O)c1ccc(Cl)cc1 94

Note down inhibition recorded for O=C(CCc1coc2cccc(OCC3CCCCC3)c2c1=O)c1ccc(Cl)c(Cl)c1 68

Note down inhibition recorded for O=C(CCc1coc2cccc(OCC3CCCCC3)c2c1=O)c1ccc(F)cc1 93

---

# key: entry, value: inhibition
Target: Interleukin-5 (Mus musculus) (UniProt P04401)
Sequence (whole entry): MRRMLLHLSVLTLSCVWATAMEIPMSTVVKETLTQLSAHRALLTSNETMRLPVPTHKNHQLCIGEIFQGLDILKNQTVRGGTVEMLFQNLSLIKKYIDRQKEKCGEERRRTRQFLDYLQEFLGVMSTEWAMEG
Experiment: Inhibition interleukin-5 in mouse Y16 cells at 30 uM after 48 hrs by WST-1 assay
Assay type: cell-based
Reply with the number, then its unit.

Field: example entries. Status: answers known.
| COMPOUND | REPORTED_RESULT |
| --- | --- |
| CC(C)(C)c1ccc(C(=O)CCc2coc3cccc(OCC4CCCCC4)c3c2=O)cc1 | 6.7% |
| O=C(CCc1coc2cccc(OCC3CCCCC3)c2c1=O)c1ccc2ccccc2c1 | 10% |

Now for another entry.
Note down inhibition recorded for CC(C)(C)c1ccc(C(O)CCc2coc3cccc(OCC4CCCCC4)c3c2=O)cc1 (stereo not drawn) 6.6%

---

Biological target: UniProt:P04401
Assay: Inhibition interleukin-5 in mouse Y16 cells at 30 uM after 48 hrs by WST-1 assay
Format: cell-based
# key: entry, value: inhibition
Write down the numeric answer in % and omit the unit.

Field: example entries. Status: answers known.
| COMPOUND | REPORTED_RESULT |
| --- | --- |
| O=C(CCC1COc2cccc(OCC3CCCCC3)c2C1=O)c1ccc(Cl)c(Cl)c1 (stereo unspecified) | 40 |
| O=C(CCc1coc2cccc(OCC3CCCCC3)c2c1=O)c1ccc(O)cc1 | 80 |
| O=c1c(CCC(O)c2ccc(O)cc2)coc2cccc(OCC3CCCCC3)c12 (stereo unspecified) | 94 |
| O=c1c(CCC(O)c2ccc3ccccc3c2)coc2cccc(OCC3CCCCC3)c12 (stereo unspecified) | 86 |
| N#Cc1ccc(C(=O)CCc2coc3cccc(OCC4CCCCC4)c3c2=O)cc1 | 93 |

Specify inhibition for O=C(CCc1coc2cccc(OCC3CCCCC3)c2c1=O)c1ccccc1 , system UniProt:P04401. 12.3

Specify inhibition for O=c1c(CCC(O)c2ccc(C(F)(F)F)cc2)coc2cccc(OCC3CCCCC3)c12 (stereo unspecified) , system UniProt:P04401. 55

Specify inhibition for COc1ccc(C(=O)CCC2COc3cccc(OCC4CCCCC4)c3C2=O)cc1 (stereo unspecified) , system UniProt:P04401. 34

Specify inhibition for O=c1c(CCC(O)c2ccc(Cl)cc2)coc2cccc(OCC3CCCCC3)c12 (stereo unspecified) , system UniProt:P04401. 94

Specify inhibition for COc1ccc(C(=O)CCc2coc3cccc(OCC4CCCCC4)c3c2=O)cc1 , system UniProt:P04401. 91

Specify inhibition for O=c1c(CCC(O)c2ccc(Cl)c(Cl)c2)coc2cccc(OCC3CCCCC3)c12 (stereo unspecified) , system UniProt:P04401. 94
